The origin of these recorded values is PubChem BioAssay (NCATS).

- Tested on: KB-3-1
- MEASUREMENT_PROTOCOL: Cytotoxic Profiling of Annotated Libraries Using Quantitative High-Throughput Screening (AID 1296008); further: on the % scale 0 is the no-effect control and ±100 the full control effect; nearly all actives have a fitted effect of over 60% in size
- RECORDED_CONDITIONS: Five cell lines viability, CellTiter-Glo ATP luminescence, 48-72 h; hits give low values
Inconclusive results are not listed.
ENDPOINT_LABEL: max response (%)
Answers are plain numbers, in %.

compound=CCC(CC)(CC(=O)Nc1cccc(/C=C/c2nc(C3CCC3)cs2)c1)C(=O)O experimental_target=KB-3-1 value_observed=-22.9

Please report max response for every entry that follows.
1. Cc1cc(CC(=O)O)c(C)n1-c1ccc(Cl)cc1
2. Cc1cc2c(OCC(CNC(C)(C)C)OC(=O)c3ccccc3)cccc2[nH]1 (stereo not given)
3. C#C[C@]1(O)CC[C@H]2[C@@H]3CCc4cc(OC)ccc4[C@H]3CC[C@@]21C
4. CCCCCCCC/C=C\CCCCCCCCN
5. CCCCCN=C(N)N/N=C/c1c[nH]c2ccc(OC)cc12
6. CC(=O)NC(=O)c1ccccc1O
7. CC1CCc2c(N3CCC(O)CC3)c(F)cc3c(=O)c(C(=O)O)cn1c23 (stereo not given)
8. Nc1ccc(C(=O)NCC(=O)O)cc1

[reply]
-2.45
-8.32
0.369
-6.06
1.55
-3.04
15
28.3

Provide the reported max response of each entry below, same order.
1. COc1ccc(CCN(C)CCCN2CCc3cc(OC)c(OC)cc3CC2=O)cc1OC
2. CCCCCCCCCCCCCCCCO
3. CCOc1ccccc1OCCN[C@H](C)Cc1ccc(OC)c(S(N)(=O)=O)c1
4. CO[C@]12C[C@@H](COC(=O)c3cncc(Br)c3)CN(C)[C@@H]1Cc1cn(C)c3cccc2c13
5. Cc1ccc(-c2ncc(Cl)cc2-c2ccc(S(C)(=O)=O)cc2)cn1
6. Cc1nc(-c2ccc(Cl)cc2)oc1COC(C)(C)C(=O)O
7. CCCCC(CC)COC(=O)c1ccc(N(C)C)cc1 (stereo not given)

[reply]
[-10.8, 19, 4.78, 9.31, -5.38, -5.49, 0.633]

List the reported max response of each compound below.
1. CC(C)=CCOc1ccc(/C=C/C(=O)c2ccc(OCC=C(C)C)cc2OCC(=O)O)cc1
2. CCCCNc1ccc(C(=O)OCCOCCOCCOCCOCCOCCOCCOCCOCCOC)cc1
3. O=C(O)C(Cc1cc(I)c(O)c(I)c1)c1ccccc1 (stereo not given)

[reply]
1: 1.11; 2: -13.9; 3: -19.5

[ask] Entry CCCCC(CC)CN1CN(CC(CC)CCCC)CC(C)(N)C1 (stereo not given) has what max response?
[reply] -12.3

---

- MEASUREMENT_PROTOCOL: Cell Viability - LYMP2-022 (AID 987);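 further: cells exposed to compound for 24 hr; 0% = DMSO alone and full effect = tetraoctylammonium bromide at 92 µM; nearly all actives have a fitted effect of over 55% in size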
- RECORDED_CONDITIONS: LYMP2-022 lymphoblastoid cell viability; series mostly up to 92.2 µM
Records with an inconclusive call do not appear. Calls of active or inactive are those of the source. Calls come from the whole dose curve; as a rule, active = well fitted cell-killing curve with a large enough effect; inconclusive = small, poorly fitted or top-dose-only effect; inactive = flat fitted curve, though single readings scatter.
ENDPOINT_LABEL: outcome

item_smiles=CCOc1ccccc1C(N)=O value_observed=inactive
item_smiles=CCOc1ccc(NC(C)=O)cc1 value_observed=inactive
item_smiles=C/C=C/c1ccc(O)c(OC)c1 value_observed=inactive
item_smiles=C=C[C@H]1CN2CC[C@H]1C[C@@H]2[C@@H](O)c1ccnc2ccc(OC)cc12 value_observed=inactive

As a next step, examine the molecule that follows.
[ask] Entry under review: OC[C@H]1O[C@@H]2O[C@H]3[C@H](O)[C@@H](O)[C@@H](O[C@H]4[C@H](O)[C@@H](O)[C@@H](O[C@H]5[C@H](O)[C@@H](O)[C@@H](O[C@H]6[C@H](O)[C@@H](O)[C@@H](O[C@H]7[C@H](O)[C@@H](O)[C@@H](O[C@H]8[C@H](O)[C@@H](O)[C@@H](O[C@H]1[C@H](O)[C@H]2O)O[C@@H]8CO)O[C@@H]7CO)O[C@@H]6CO)O[C@@H]5CO)O[C@@H]4CO)O[C@@H]3CO . Reported outcome?
[reply] inactive
